- ASSAY: in vitro
- ASSAY CONTEXT: human, hela cells, % viability
The compounds listed here are annotated with their viability at 28.5 h, 10 µM.

# example entries with known answers
• COc1ccc2nc(NC(=O)c3cccc(N4C(=O)CCC4=O)c3)sc2c1 = 108%
• CCN1CCN(C(=O)CCNC(=O)c2cccc(OC)c2)CC1 = 96.6%

Param item = CN(C(=O)C1(C)CCOCC1)c1nc2c(s1)CC(c1ccccc1)CC2 (stereo not shown) ; retrieve measured viability at 28.5 h, 10 µM.
82.8%

For the compound O=C(COc1ccc(S(=O)(=O)N2CCCCC2)cc1Cl)NCc1ccccn1 , what viability at 28.5 h, 10 µM is on record?
89.6%

// viability at 28.5 h, 10 µM lookup, key: O=C(O)C1CSC(c2ccccc2)N1 (stereo not shown)
114%

What does the data say about its viability at 28.5 h, 10 µM? Entry: Nc1ncc(-c2cccc(/C=C/C(=O)O)c2)nc1N1CCN(CCO)CC1
98.7%

What measured viability at 28.5 h, 10 µM goes with Cc1ccccc1-c1cc(C(=O)Nc2ccc(S(N)(=O)=O)cc2)c2cc(Cl)ccc2n1 ?
90%
